- target_of_assay: human TAS2R1 (Homo sapiens, UniProt Q9NYW7)
- Construct: expressed in transfected cells; host or cells: HEK293T-Gα16gust44
- Sequence (Q9NYW7 whole entry): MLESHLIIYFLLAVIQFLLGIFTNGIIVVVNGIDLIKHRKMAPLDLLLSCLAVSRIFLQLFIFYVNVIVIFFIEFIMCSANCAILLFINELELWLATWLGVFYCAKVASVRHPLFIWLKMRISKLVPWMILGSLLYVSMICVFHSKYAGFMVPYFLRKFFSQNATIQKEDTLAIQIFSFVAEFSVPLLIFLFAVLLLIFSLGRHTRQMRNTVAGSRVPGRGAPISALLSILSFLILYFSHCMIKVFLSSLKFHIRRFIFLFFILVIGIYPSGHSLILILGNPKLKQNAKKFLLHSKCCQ
- test_name: Calcium imaging assay (FLIPR), HEK293T-Gα16gust44 cells transfected with human TAS2R1
- Assay type: cell-based
- condition_info: Time 233.562 s
Please go through the items and note down their RLU.
Please answer in the form of a number followed by its unit of measurement.

Entry under test: C[C@H](CCC(=O)O)[C@H]1CC[C@H]2[C@@H]3[C@H](O)C[C@@H]4C[C@H](O)CC[C@]4(C)[C@H]3CC[C@]12C . Its RLU was 155.786 RLU

What the record says about C[C@H](CCC(=O)O)[C@H]1CC[C@H]2[C@@H]3[C@H](O)C[C@@H]4C[C@H](O)CC[C@]4(C)[C@H]3C[C@H](O)[C@]12C : RLU is -20.3665 RLU

// recorded RLU for C[C@H](CCC(=O)O)[C@H]1CC[C@H]2[C@@H]3[C@@H](O)C[C@@H]4C[C@H](O)CC[C@]4(C)[C@H]3CC[C@]12C : 4.71 RLU

// RLU value for C[C@H](CCC(=O)O)[C@H]1CC[C@H]2[C@@H]3CC[C@@H]4C[C@H](O)CC[C@]4(C)[C@H]3CC[C@]12C : 409.48 RLU

----------
Can you tell me RLU for the items I'm about to list?
- target_of_assay: mouse Tas2r105 (Mus musculus, UniProt Q9JKT4)
- Construct: expressed in transfected cells; host or cells: HEK293T-Gα16gust44
- Sequence (Q9JKT4 whole entry): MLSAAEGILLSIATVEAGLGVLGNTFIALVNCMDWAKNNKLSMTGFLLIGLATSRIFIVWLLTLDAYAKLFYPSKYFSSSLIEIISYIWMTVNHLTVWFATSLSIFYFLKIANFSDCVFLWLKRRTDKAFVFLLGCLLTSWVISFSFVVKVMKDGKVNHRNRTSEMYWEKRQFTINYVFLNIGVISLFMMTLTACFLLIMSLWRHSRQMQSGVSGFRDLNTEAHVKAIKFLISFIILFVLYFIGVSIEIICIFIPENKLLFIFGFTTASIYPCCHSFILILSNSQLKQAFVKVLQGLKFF
- test_name: Calcium imaging assay (FLIPR), HEK293T-Gα16gust44 cells transfected with mouse Tas2r105
- Assay type: cell-based
- condition_info: Time 62.781 s
- Method: This set of bile acids was chosen because of their commercial availability in high purities, their diversity within the class of bile acids and their previous detection and quantitation in human blood. Stock solutions were prepared in DMSO. […] Measured data were negative control corrected by subtracting the signal of the mock-transfected cells and exported to Microsoft Excel using the FLIPR software ScreenWorks 4.2. […]
Expressed in RLU, but write only the number.

Value of RLU reported for the compound C[C@H](CCC(=O)NCC(=O)O)[C@H]1CC[C@H]2[C@@H]3[C@H](O)C[C@@H]4C[C@H](O)CC[C@]4(C)[C@H]3C[C@H](O)[C@]12C is 387.64

response.value for C[C@H](CCC(=O)O)[C@H]1CC[C@H]2[C@@H]3CC[C@@H]4C[C@H](O)CC[C@]4(C)[C@H]3CC[C@]12C (field: RLU) = 104.538

Reported RLU ( C[C@H](CCC(=O)O)[C@H]1CC[C@H]2[C@@H]3CC[C@@H]4C[C@H](O)CC[C@]4(C)[C@H]3C[C@H](O)[C@]12C ) = 36.5379

Memo: C[C@H](CCC(=O)O)[C@H]1CC[C@H]2[C@@H]3[C@H](O)C[C@@H]4C[C@H](O)CC[C@]4(C)[C@H]3C[C@H](O)[C@]12C , reported RLU: 314.427

----------
Could you please report measured RLU for the items listed next?
- target_of_assay: mouse Tas2r105 (Mus musculus)
- Construct: expressed in transfected cells; host or cells: HEK293T-Gα16gust44
- test_name: Calcium imaging assay (FLIPR), HEK293T-Gα16gust44 cells transfected with mouse Tas2r105
- Assay type: cell-based
- condition_info: Time 26.781 s
Give the quantity in RLU, number only.

Entry under test: C[C@H](CCC(=O)O)[C@H]1CC[C@H]2[C@@H]3CC[C@@H]4C[C@H](O)CC[C@]4(C)[C@H]3C[C@H](O)[C@]12C [Deoxycholic Acid, deoxycholic acid] . Its RLU was -0.6161

Memo: C[C@H](CCC(=O)O)[C@H]1CC[C@H]2[C@@H]3CC[C@@H]4C[C@H](O)CC[C@]4(C)[C@H]3CC[C@]12C [Lithocholic Acid, lithocholic acid] , reported RLU: 13.4767

C[C@H](CCC(=O)NCC(=O)O)[C@H]1CC[C@H]2[C@@H]3[C@H](O)C[C@@H]4C[C@H](O)CC[C@]4(C)[C@H]3C[C@H](O)[C@]12C [Glycocholic Acid, glycocholic acid] has a reported RLU of 13.7683

Notebook: C[C@H](CCC(=O)O)[C@H]1CC[C@H]2[C@@H]3[C@H](O)C[C@@H]4C[C@H](O)CC[C@]4(C)[C@H]3C[C@H](O)[C@]12C [Cholic Acid, cholic acid] , RLU read as 50.2337
